test_summary: protein stability index of a GFP-peptide fusion (GPS, HEK-293T) (PSI 1-6); higher = more stable;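 also: 24-mer peptide tiles fused after GFP, lentivirally expressed, FACS-sorted into six equal bins by GFP/DsRed ratio, decoded by Illumina sequencing, PSI is the read-weighted mean bin number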
settings: treatment: MLN4924 1 uM, 8 h; c terminus: a fixed tail appended
readout_kind: protein stability index

> print(dat)
                                    seq             readout.kind  measured
 1      MEEVISPRQVSYTPQHHEKQYAMQ [IQUB]  protein stability index      4.31
 2      SRSLLTGGYNLASVSVWDLAAPSL [TLE6]  protein stability index      2.29
 3    ISPRGAGYTFGQDISETFNHANGL [PPP2CA]  protein stability index      3.23
 4      LMYPSYTFSGDVQLAQDDIDGIQA [MMP1]  protein stability index      4.25
 5     WSIPWKWLFGATAVALGGVALSVV [FKBP8]  protein stability index      3.98
 6      PFDQSGLGAEESLGLLDDYLEVAK [ATF4]  protein stability index      4.62
 7   NVAATGISQYEDDLPPPPADPVLD [APBB1IP]  protein stability index      5.45
 8    FNIGLPDNIVNCNEFLCTLQKKLD [ZNF277]  protein stability index      2.51
 9     LAAAPEGLEDAGLDPHFVPTELWP [TEX19]  protein stability index      4.19
10     FNDVAKFLKQGDSADETTAHKTEE [CMTM3]  protein stability index      5.13
11      KAGQPESRALALFDIQKIMQEKNP [ZNF8]  protein stability index      4.26
12      LENSKYCRFNQDPEAVDEDRSTEP [ATE1]  protein stability index      5.29
13  FSKNLKLGIHEDSTNRRRLSELLR [HSP90AB1]  protein stability index      2.43
14     SLSHINAYACLVCGKYFQGRGLKS [USP39]  protein stability index      2.07
15     NDKMAEYTNSAGVPSLNAALMHTL [GOSR1]  protein stability index      3.42
16   DLRINLWNFEITNQSFNIVDIKPA [PPP2R2B]  protein stability index       2.4
17      AGKSGTSTPTTPGSTAITPGTPPS [MAP2]  protein stability index      5.11
18     RNPGPGRHRLITQVYLSHTAWTEA [INTS4]  protein stability index      2.29
19   AALSATGPRFLAYFGSFATVGLLW [TMEM175]  protein stability index      3.18
20      PAAPFDKKCGRENWTVAFAPDGSY [WSB1]  protein stability index      2.86
21    EYSKFCRMSYQDPAQLSCLPYLEH [NFE2L1]  protein stability index      1.89
22      GGFMGYSAENIPGCSSSGSCSQGS [CRY1]  protein stability index       4.4
23     FEPHSGEDYSRDEDHIAHIIELLG [SRPK2]  protein stability index      3.63
24      GFGSKNTAFCTHVFPETAFIAVTS [TBX5]  protein stability index      2.09
25     DLEMKEEEEISETGELVGPFVSAM [ZBED2]  protein stability index      5.27
26     KALTTLCDLADRELVVIIGWAKHI [ESRRG]  protein stability index      2.79
27     EGELGEYRQKLLMFLEISSYYDPG [VPS39]  protein stability index      2.18
